Would you kindly list activation at 1 µM for each of these compounds?
Target: glutamate-activated channels of the GRIN1/2A subtype stably transfected in HEK 293 cells (Homo sapiens (Human), UniProt Q05586+Q12879)
Sequence (Q12879 whole entry, looked up, other chains not shown): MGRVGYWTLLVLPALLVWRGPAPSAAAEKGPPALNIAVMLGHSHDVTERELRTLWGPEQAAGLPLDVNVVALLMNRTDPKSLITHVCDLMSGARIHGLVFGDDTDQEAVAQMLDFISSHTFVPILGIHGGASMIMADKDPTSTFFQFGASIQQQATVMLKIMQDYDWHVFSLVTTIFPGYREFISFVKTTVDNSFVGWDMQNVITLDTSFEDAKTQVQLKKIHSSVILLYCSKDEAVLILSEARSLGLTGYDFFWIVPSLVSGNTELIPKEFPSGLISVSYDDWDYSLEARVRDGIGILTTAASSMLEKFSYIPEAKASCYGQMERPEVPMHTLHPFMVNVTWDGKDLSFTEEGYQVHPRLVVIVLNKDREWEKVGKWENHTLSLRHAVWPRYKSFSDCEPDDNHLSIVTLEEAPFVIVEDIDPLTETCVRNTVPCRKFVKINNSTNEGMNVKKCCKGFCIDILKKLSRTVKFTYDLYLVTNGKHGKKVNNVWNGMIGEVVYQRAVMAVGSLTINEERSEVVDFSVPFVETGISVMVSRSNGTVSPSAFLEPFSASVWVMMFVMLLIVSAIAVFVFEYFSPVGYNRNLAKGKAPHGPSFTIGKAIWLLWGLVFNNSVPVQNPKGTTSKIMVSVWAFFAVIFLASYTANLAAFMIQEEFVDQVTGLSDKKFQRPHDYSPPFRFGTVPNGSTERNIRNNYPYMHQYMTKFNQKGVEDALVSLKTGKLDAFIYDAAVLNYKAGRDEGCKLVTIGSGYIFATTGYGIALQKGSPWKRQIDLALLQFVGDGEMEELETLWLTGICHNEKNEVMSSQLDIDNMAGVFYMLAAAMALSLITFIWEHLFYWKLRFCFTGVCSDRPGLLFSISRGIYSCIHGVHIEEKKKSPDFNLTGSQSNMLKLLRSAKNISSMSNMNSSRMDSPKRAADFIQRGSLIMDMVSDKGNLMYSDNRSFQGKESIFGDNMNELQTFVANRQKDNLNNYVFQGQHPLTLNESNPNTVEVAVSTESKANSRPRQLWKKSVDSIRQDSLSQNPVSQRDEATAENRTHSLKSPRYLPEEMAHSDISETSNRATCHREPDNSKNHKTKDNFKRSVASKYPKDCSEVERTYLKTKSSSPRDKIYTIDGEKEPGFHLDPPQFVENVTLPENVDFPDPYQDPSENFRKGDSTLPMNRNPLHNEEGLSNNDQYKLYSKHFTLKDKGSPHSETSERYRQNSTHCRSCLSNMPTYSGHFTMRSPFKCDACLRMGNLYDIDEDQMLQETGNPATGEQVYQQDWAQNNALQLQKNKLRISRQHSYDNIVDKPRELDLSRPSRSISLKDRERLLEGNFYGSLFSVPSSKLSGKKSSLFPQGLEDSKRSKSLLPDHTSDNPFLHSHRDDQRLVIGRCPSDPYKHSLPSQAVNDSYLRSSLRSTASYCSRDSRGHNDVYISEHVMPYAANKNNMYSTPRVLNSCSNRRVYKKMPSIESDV
Test: Automated patch-clamp system (QPatch HTX), percent potentiation at 1 μM
Type: cell-based
Conditions: HEK293, 1 μM test compound, 300 μM NMDA with 8 μM glycine, HEK 293 GRIN1/2A, read-out: GluN2A PCA % potentiation at 1 μM

// solved cases for activation at 1 µM follow
[[record]]
compound_structure = "CC#CC[C@H](O)[C@@H](C)[C@H]1CC[C@H]2[C@@H]3CC[C@H]4C[C@](O)(CC)CC[C@]4(C)[C@H]3CC[C@]12C"
result = "-40 to -10%"

[[record]]
compound_structure = "CC(C)CC[C@H](O)[C@@H](C)[C@H]1CC[C@H]2[C@@H]3CC=C4C[C@@](C)(O)CC[C@@H]4[C@H]3CC[C@]12C"
result = "-40 to -10%"

[[record]]
compound_structure = "CC[C@]1(O)CC[C@@]2(C)[C@H](CC[C@@H]3[C@@H]2CC[C@]2(C)[C@@H]([C@H](C)[C@@H](O)CCC(C)C)CC[C@@H]32)C1"
result = "-40 to -10%"

[[record]]
compound_structure = "CC[C@]1(O)CC[C@@]2(C)[C@@H](CC[C@@H]3[C@@H]2CC[C@]2(C)[C@@H]([C@H](C)[C@H](O)C4CCCC4)CC[C@@H]32)C1"
result = "-40 to -10%"

[[record]]
compound_structure = "CC[C@]1(O)CC[C@@]2(C)[C@H](CC[C@@H]3[C@@H]2CC[C@]2(C)[C@@H]([C@H](C)[C@H](O)C(F)(F)F)CC[C@@H]32)C1"
result = "< -40%"


Would you mind giving activation at 1 µM for every compound in the list below?
1. CC[C@]1(O)CC[C@@]2(C)[C@@H](CC[C@@H]3[C@@H]2CC[C@]2(C)[C@@H]([C@H](C)[C@@H](O)C4CC4)CC[C@@H]32)C1
2. CC[C@]1(O)CC[C@@]2(C)C(=CC[C@H]3[C@@H]4CC[C@H]([C@H](C)[C@H](O)CC5CCCC5)[C@@]4(C)CC[C@@H]32)C1
3. CC[C@]1(O)CC[C@@]2(C)[C@@H](CC[C@@H]3[C@@H]2CC[C@]2(C)[C@@H]([C@H](C)[C@H](O)CC4CCC(C)(C)CC4)CC[C@@H]32)C1
4. CC[C@]1(O)CC[C@@]2(C)[C@@H](CC[C@@H]3[C@@H]2CC[C@]2(C)[C@@H]([C@H](C)[C@@H](O)Cc4ccccc4)CC[C@@H]32)C1
5. COC[C@]1(O)CC[C@@]2(C)[C@H](CC[C@@H]3[C@@H]2CC[C@]2(C)[C@@H]([C@H](C)[C@@H](O)C(F)(F)F)CC[C@@H]32)C1
6. COC[C@]1(O)CC[C@H]2[C@H](CC[C@@H]3[C@@H]2CC[C@]2(C)[C@@H]([C@H](C)[C@H](O)C(F)(F)F)CC[C@@H]32)C1

["< -40%", "-40 to -10%", "-40 to -10%", "-10 to 10%", "-40 to -10%", "-40 to -10%"]
